target: h-11βHSD1 (Homo sapiens)
Sequence (P28845 whole entry): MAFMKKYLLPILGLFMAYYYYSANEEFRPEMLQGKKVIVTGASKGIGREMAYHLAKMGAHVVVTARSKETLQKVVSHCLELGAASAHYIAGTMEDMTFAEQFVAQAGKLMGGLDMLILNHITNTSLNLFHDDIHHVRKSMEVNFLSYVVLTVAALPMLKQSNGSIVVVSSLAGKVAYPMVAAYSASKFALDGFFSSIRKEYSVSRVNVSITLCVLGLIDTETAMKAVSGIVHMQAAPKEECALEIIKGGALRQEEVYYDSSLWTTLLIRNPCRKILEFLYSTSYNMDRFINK
Attribute measured: log10(IC50) (log10 of the value in nM)
# values: log10(IC50), units nM

{"columns": ["Molecule", "Tested target", "log10(IC50)"],
 "data": [
  ["Cn1c2ccccc2c2cc(C(=O)N3CC4CC(O)C3C4)ccc21 (stereo not shown) [Example 9]", "h-11βHSD1 (Homo sapiens)", 2.44]
]}

Notebook: pull reported log10(IC50) for h-11βHSD1 (Homo sapiens), entry O=C(NC1C2CC3CC1CC(O)(C3)C2)c1ccc2[nH]c3ccccc3c2c1 (stereo not shown) [Example 11]
1.46

----------
biological target: UniProt:P28845
Mark Condition met for IC50 under 8 nM, Condition not met if at or over.

{"columns": ["Molecule", "Answer label"],
 "data": [
  ["O=C(c1ccc2c(c1)-c1ccccc1C2)N1C2CCC1CC(O)C2 (single isomer, unassigned) [Example 2]", "Condition not met"],
  ["CN(C(=O)c1ccc2[nH]c3ccccc3c2c1)C1C2CC3CC1CC(O)(C3)C2 (centres unmarked)", "Condition not met"],
  ["Cn1c2ccccc2c2cc(C(=O)N3C4CCC3CC(O)C4)ccc21 (centres unmarked)", "Condition met"]
]}

--- query ---
Bench note: check whether O=C(c1ccc2[nH]c3ccccc3c2c1)N1C2CCC1CC(O)C2 (centres unmarked) shows IC50 below 8 nM
Condition not met
